# credit: ChEMBL document CHEMBL5143607

biological target: DNA gyrase (Escherichia coli, UniProt P0AES4+P0AES6); experiment: Inhibition of Escherichia coli DNA gyrase supercoiling activity
Listing of recorded IC50 by entry.
Output spec: scalar in nM, unitless text.

COc1ccc2ccc(=O)n(CCN[C@H]3CC[C@H]4[C@H](C3)OC(=O)N4c3ccc4c(n3)NC(=O)CS4)c2n1 = 105
N#Cc1ccc2ccc(=O)n(CCN[C@H]3CC[C@H]4[C@H](C3)OC(=O)N4c3ccc4c(n3)NC(=O)CO4)c2c1 = 30
COc1ccc2ccc(=O)n(CCN[C@H]3CC[C@H]4[C@H](C3)OC(=O)N4c3ccc4c(n3)NC(=O)CO4)c2n1 = 55

Reported IC50 of COc1cnc2ccc(=O)n(CCN[C@H]3CC[C@H]4[C@H](C3)OC(=O)N4c3ccc4c(n3)NC(=O)CO4)c2c1 : 220

Reported IC50 of N#Cc1cnc2ccc(=O)n(CCN[C@H]3CC[C@H]4[C@H](C3)OC(=O)N4c3ccc4c(n3)NC(=O)CO4)c2c1 : 90

Reported IC50 of N#Cc1cnc2ccc(=O)n(CCCN[C@H]3CC[C@H]4[C@H](C3)OC(=O)N4c3ccc4c(n3)NC(=O)CO4)c2c1 : 340

Reported IC50 of COc1cnc2ccc(=O)n(CCCN[C@H]3CC[C@H]4[C@H](C3)OC(=O)N4c3ccc4c(n3)NC(=O)CO4)c2c1 : 460
